A collection of molecules and their measured tissue uptake at 120 h
assay: Biodistribution of 177Lu-labeled αMSH analogues in mice bearing B16F10 mouse melanoma; type: in vivo, C57BL/6J mice; conditions: mouse, adrenal glands, iv, total radioactivity; 120 h p.i., C57BL/6J mice, B16F10 melanoma; read-out: Biodistribution, Adrenal glands
Entry rule: numbers only, all in %ID/g.

Below are worked cases with known answers.
molecule	unit-string	tissue uptake at 120 h
CCCC[C@H](NC(=O)CN1CCC(NC(=O)[C@H](CCCCNC(=O)CN2CCN(CC(=O)O)CCN(CC(=O)O)CCN(CC(=O)O)CC2)NC(=O)[C@H](CCC(=O)O)NC(=O)CCCc2ccc(I)cc2)CC1)C(=O)N[C@H]1CC(=O)NCCCC[C@@H](C(N)=O)NC(=O)[C@H](Cc2c[nH]c3ccccc23)NC(=O)[C@H](CCCNC(=N)N)NC(=O)[C@@H](Cc2ccccc2)NC(=O)[C@H](Cc2c[nH]cn2)NC1=O [^177Lu-labeled CCZ01082, metal not drawn]	%ID/g	0.33
CCCC[C@H](NC(=O)CN1CCC(NC(=O)CN2CCN(CC(=O)O)CCN(CC(=O)O)CCN(CC(=O)O)CC2)CC1)C(=O)N[C@H]1CC(=O)NCCCC[C@@H](C(N)=O)N(C)C(=O)[C@H](Cc2c[nH]c3ccccc23)N(C)C(=O)[C@H](CCCNC(=N)N)N(C)C(=O)[C@@H](Cc2ccccc2)NC(=O)[C@H](Cc2c[nH]cn2)N(C)C1=O [^177Lu-labeled CCZ01099, metal not drawn]	%ID/g	0.03
CCCC[C@H](NC(=O)CN1CCC(NC(=O)CN2CCN(CC(=O)O)CCN(CC(=O)O)CCN(CC(=O)O)CC2)CC1)C(=O)N[C@H]1CC(=O)NCCCC[C@@H](C(N)=O)N(C)C(=O)[C@H](Cc2c[nH]c3ccccc23)NC(=O)[C@H](CCCNC(=N)N)N(C)C(=O)[C@@H](Cc2ccccc2)NC(=O)[C@H](Cc2c[nH]cn2)NC1=O [^177Lu-labeled CCZ01106, metal not drawn]	%ID/g	0.02

Now for another entry.
Entry CCCC[C@H](NC(=O)CN1CCC(NC(=O)[C@H](CCCCNC(=O)CN2CCN(CC(=O)O)CCN(CC(=O)O)CCN(CC(=O)O)CC2)NC(=O)[C@H](CCC(=O)O)NC(=O)CCCc2ccc(I)cc2)CC1)C(=O)N[C@H]1CC(=O)NCCCC[C@@H](C(N)=O)N(C)C(=O)[C@H](Cc2c[nH]c3ccccc23)N(C)C(=O)[C@H](CCCNC(=N)N)N(C)C(=O)[C@@H](Cc2ccccc2)NC(=O)[C@H](Cc2c[nH]cn2)N(C)C1=O [^177Lu-labeled CCZ01088, metal not drawn] ; tissue uptake at 120 h = 0.34

Cited source for all entries: patent US11395857B2
